Test system: HIF-1α–NanoLuc
assayName: HIF-1α–NanoLuc reporter gene assay (qHTS primary and confirmatory screens)
Type: cell-based, human
particulars: Homo sapiens, HCT-116; HCT116 reporter cells, hypoxia; read-out: HIF-1α–NanoLuc IC50
measurementLabel: IC50

1) C[C@]1(O)C[C@@H](c2nc(-c3ccc4ccc(-c5ccccc5)nc4c3)c3c(N)nccn32)C1 :: 6.23 µM

---

Tested on: HIF-1α–NanoLuc
assayName: HIF-1α–NanoLuc reporter gene assay (qHTS primary and confirmatory screens)
Type: cell-based, human
particulars: Homo sapiens; Table S2; validation; read-out: Pathway inhibitors (validation) HIF-1α–NanoLuc Activity Efficacy
measurementLabel: Emax

1) CC[C@@H]1C(=O)N(C)c2cnc(Nc3ccc(C(=O)N[C@H]4CC[C@H](N5CCN(CC6CC6)CC5)CC4)cc3OC)nc2N1C(C)C :: 78%
2) O=C(NOCC1CC1)c1ccc(F)c(F)c1Nc1ccc(I)cc1Cl :: 99%
3) CC(C)(C)c1nc(-c2cccc(NS(=O)(=O)c3c(F)cccc3F)c2F)c(-c2ccnc(N)n2)s1 :: 26%
4) CS(=O)(=O)CCNCc1ccc(-c2ccc3ncnc(Nc4ccc(OCc5cccc(F)c5)c(Cl)c4)c3c2)o1 :: 50%
5) Cn1cc(C2=C(c3cn(C4CCN(Cc5ccccn5)CC4)c4ccccc34)C(=O)NC2=O)c2ccccc21 :: 67%
6) CCCS(=O)(=O)Nc1ccc(F)c(C(=O)c2c[nH]c3ncc(-c4ccc(Cl)cc4)cc23)c1F :: 66%
7) O=c1cc(N2CCOCC2)oc2c(-c3ccccc3)cccc12 :: 50%
8) C#Cc1cccc(Nc2ncnc3cc(OCCOC)c(OCCOC)cc23)c1 :: 35%
9) O=C1c2c(O)ccc(O)c2C(=O)c2c(NCCNCCO)ccc(NCCNCCO)c21 :: 110%
10) Cc1nc(Nc2ncc(C(=O)Nc3c(C)cccc3Cl)s2)cc(N2CCN(CCO)CC2)n1 :: 46%
11) CCN(CC)CCNC(=O)c1c(C)[nH]c(/C=C2\C(=O)Nc3ccc(F)cc32)c1C :: 80%
12) Cc1ccc(C(=O)Nc2ccc(S(=O)(=O)O)c3cc(S(=O)(=O)O)cc(S(=O)(=O)O)c23)cc1NC(=O)c1cccc(NC(=O)Nc2cccc(C(=O)Nc3cc(C(=O)Nc4ccc(S(=O)(=O)O)c5cc(S(=O)(=O)O)cc(S(=O)(=O)O)c45)ccc3C)c2)c1 :: 41%
13) Cn1cnc2c(F)c(Nc3ccc(Br)cc3Cl)c(C(=O)NOCCO)cc21 :: 48%
14) CNC(=O)c1cc(Oc2ccc(NC(=O)Nc3ccc(Cl)c(C(F)(F)F)c3)cc2)ccn1 :: 100%
15) CC(=O)Nc1cccc(-n2c(=O)n(C3CC3)c(=O)c3c(Nc4ccc(I)cc4F)n(C)c(=O)c(C)c32)c1 :: 69%

---

System: HIF-1α–NanoLuc
assayName: HIF-1α–NanoLuc reporter gene assay (qHTS primary and confirmatory screens)
Format: cell-based, human
particulars: Homo sapiens, read-out: HIF-1α–NanoLuc primary Efficacy
Let's look at some compounds and their measured Emax.
measurementLabel: Emax

1. COc1cccc2c1C(=O)c1c(O)c3c(c(O)c1C2=O)C[C@@](O)(C(C)=O)C[C@@H]3O[C@H]1C[C@H](N)[C@H](O)[C@H](C)O1 :: 51%
2. C[C@H]1O[C@@H](O[C@H]2[C@@H](O)C[C@H](O[C@H]3[C@@H](O)C[C@H](O[C@H]4CC[C@@]5(C)[C@H](CC[C@@H]6[C@@H]5CC[C@]5(C)[C@@H](C7=CC(=O)OC7)CC[C@]65O)C4)O[C@@H]3C)O[C@@H]2C)C[C@H](O)[C@@H]1O :: 124%
3. C[C@@H]1O[C@@H](O[C@@H]2C=C3CC[C@@H]4[C@H](CC[C@]5(C)[C@@H](c6ccc(=O)oc6)CC[C@]45O)[C@@]3(C)CC2)[C@H](O)[C@H](O)[C@H]1O :: 101%
4. C[C@H]1O[C@@H](O[C@H]2CC[C@@]3(C)[C@H](CC[C@@H]4[C@@H]3C[C@@H](O)[C@]3(C)[C@@H](C5=CC(=O)OC5)CC[C@]43O)C2)C[C@H](O)[C@@H]1O[C@H]1C[C@H](O)[C@H](O[C@H]2C[C@H](O)[C@H](O[C@@H]3O[C@H](CO)[C@@H](O)[C@H](O)[C@H]3O)[C@@H](C)O2)[C@@H](C)O1 [Deslanoside] :: 115%
